Ref: paper PMC5540273

Each record here notes measured %Inh.
system: BIKE; construct: gene BMP2K; details: concentration: 1 μM, replicates: in singlicate; n = 1;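 note: KINOMEscan kinase panel screen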
Give just the numeric value; % need not be written.

{"columns": ["compound", "experimental-readout", "val"],
 "data": [
  ["COc1cccc(C(=O)Nc2cccc(Oc3ccc4nc(NC(=O)C5CC5)cn4n3)c2)c1", "%Inh", 18],
  ["Cc1ccc(C(=O)N2CC[C@@H](O)C2)cc1-n1c(C)cc(OCc2ccc(F)cc2F)c(Br)c1=O", "%Inh", 0],
  ["COc1ccc(Nc2nccc(N3CCC(NC(=O)Nc4cccc(OC)c4)C3)n2)cc1 (centres unmarked)", "%Inh", 13],
  ["Cl.Cl.NCC(C(=O)Nc1cc(Br)c(-c2ccnc3[nH]ccc23)s1)c1ccccc1 (centres unmarked)", "%Inh", 99.8]
]}

Ask | Jot down %Inh (BIKE) of `COc1ccc(-c2coc3ccc(-c4nnc(SCc5ccc(OC)c(C(F)(F)F)c5)o4)cc23)cc1` .
Reply | 0

Ask | With BIKE as the test system, provide measured %Inh for this compound: `O=C(Nc1cccc(-c2nn3ccccc3c2-c2ccnc(Nc3cccc(C(F)(F)F)c3)n2)c1)c1c(F)cccc1F`
Reply | 0

Ask | Would you please give the reported %Inh of COc1cccc(NC(=O)NC2CCN(c3ccnc(Nc4cc(OC)c(OC)c(OC)c4)n3)C2)c1 (centres unmarked) with BIKE?
Reply | 78

Ask | State measured %Inh of the compound `CCCCc1nn2ncccc2c1-c1ccnc(Nc2ccc(N3CCN(C)CC3)cc2)n1` with BIKE.
Reply | 69

----------
test system: EPHA1; conditions: concentration: 1 μM, replicates: in singlicate; n = 1
Please note: t applies when %Inh is 10% or greater, and f applies otherwise.

Ask | Textbook exercise: given the entry `Cn1cc(-c2[nH]c3cc(NC(=O)[C@H](N)C4CCCCC4)cc4c3c2C=NNC4=O)cn1` , state whether its %Inh is greater than or equal to 10%.
Reply | t

Ask | Evaluate `O=C(Nc1cccc(-c2nn3ccccc3c2-c2ccnc(Nc3cccc(F)c3)n2)c1)c1c(F)ccc(F)c1Cl` : %Inh at minimum 10%?
Reply | f

Ask | Please indicate if the recorded %Inh for Cl.Cl.NCC(C(=O)Nc1cc(Br)c(-c2ccnc3[nH]ccc23)s1)c1ccccc1 (stereo not drawn) meets or exceeds 10%.
Reply | t

Ask | Does Cc1ccc(C)c(NC(=O)NC2CCN(c3ccnc(Nc4ccc(F)cc4)n3)C2)c1 (stereo not drawn) have a reported %Inh of at least 10%?
Reply | t

Ask | Textbook exercise: given the entry `Cn1cc(-c2ccc3c(c2)CCN3C(=O)Cc2cccc(F)c2)c2c(N)ncnc21` , state whether its %Inh is greater than or equal to 10%.
Reply | t

Ask | Would you say `Cn1cc(-c2ccc3c(c2)CCN3C(=O)Cc2cccc(Cl)c2)c2c(N)ncnc21` shows %Inh at minimum 10%?
Reply | t

Ask | Dear colleague, could you confirm whether `CN(c1ccc(NC(=O)Nc2cc(C(F)(F)F)ccc2F)cc1)c1ccnc(Nc2ccc(S(N)(=O)=O)cc2)n1` has %Inh at or above 10%?
Reply | t

Ask | Exam item: decide whether the reported %Inh for `COC(=O)Nc1nc2cc(Oc3ccc(NC(=O)Nc4cc(C(F)(F)F)ccc4F)cn3)ccc2[nH]1.Cl.Cl` is at least 10%.
Reply | t

Ask | Hello, I need to know if `Nc1ncc(-c2ccc3nccc(-c4ccncc4)c3c2)cc1S(=O)(=O)N1CCOCC1` has measured %Inh not below 10%. Thanks!
Reply | f

Ask | hey, is %Inh for this one >= 10%? `O=C(O)C(F)(F)F.O=C(O)C(F)(F)F.O=c1[nH]ccc2nc(N[C@@H]3CCCNC3)nc(Nc3ccc(S(=O)(=O)N4CCOCC4)cc3)c12`
Reply | t

----------
tested on: SGK3; details: concentration: 1 μM, replicates: in singlicate; n = 1
The class of a record is decided solely by its measured %Inh; consult low bracket: < 1%; middle bracket: ≥ 1% and < 20%; high bracket: ≥ 20%

Ask | Bin this entry: O=C(NC1CCN(c2ccnc(Nc3ccc(F)cc3)n2)C1)c1cc2ccccc2s1 (stereo not drawn) [GSK1379716]
Reply | low bracket

Ask | Looking at Cl.c1ccc(-c2ccc3c(Nc4ccc5[nH]ncc5c4)ccnc3c2)nc1 [GW440137] , which class would you pick?
Reply | high bracket

----------
system: LIMK2; settings: concentration: 1 μM, replicates: in singlicate; n = 1
Recorded %Inh by entry
Just the number in %, nothing appended.

Example results:
{"columns": ["compound", "result-unit", "%Inh"],
 "data": [
  ["Cl.Cl.NCC(NCc1ccc(-c2ccnc3[nH]ccc23)s1)c1ccccc1 (centres unmarked)", "%", 20],
  ["COc1cc(Nc2nccc(-c3c(-c4cccc(NC(=O)c5c(F)cccc5F)c4)nn4ncccc34)n2)cc(OC)c1OC", "%", 8],
  ["CC(C)c1nc(-c2cccc(NS(=O)(=O)c3c(F)cccc3F)c2F)c(-c2ccnc(Nc3ccc(N4CCOCC4)nc3)n2)s1", "%", 100],
  ["Cl.Cl.NCC(NC(=O)c1cc(-c2ccccc2)c(-c2ccnc3[nH]ccc23)s1)c1ccccc1 (centres unmarked)", "%", 0]
]}

Next up:
Ask | Report measured %Inh; entry is `CC(=O)N1CCN(c2ccc(Nc3nccc(-c4sc(C(C)C)nc4-c4cccc(NS(=O)(=O)c5cccc(Cl)c5)c4)n3)cn2)CC1`
Reply | 100

----------
test system: PRKCH; settings: concentration: 1 μM, replicates: in singlicate; n = 1
experimental-readout: %Inh (%)
Provide the reading as a plain figure in %.

{"columns": ["molecule", "target-system", "%Inh [%]"],
 "data": [
  ["Oc1cc(Nc2ccnc3cc(I)ccc23)ccc1F [GW552771]", "PRKCH", 13],
  ["Cc1ccc(S(=O)(=O)Nc2ccc(Nc3nccc(Nc4cccc5[nH]ncc45)n3)cc2)cc1 [GSK581271]", "PRKCH", 0],
  ["CCCCc1nn2ncccc2c1-c1ccnc(Nc2ccc(N3CCN(C)CC3)cc2)n1 [GW684941]", "PRKCH", 0],
  ["Cl.Cl.NCC(NCc1ccc(-c2ccnc3[nH]ccc23)s1)c1ccccc1 (centres unmarked) [GSK1321565]", "PRKCH", 85]
]}

Query molecule follows.
Ask | Respond only with %Inh recorded for NCCCC(NC(=O)c1cc(Br)c(-c2ccnc3[nH]ccc23)s1)c1ccccc1.O=C(O)C(F)(F)F.O=C(O)C(F)(F)F (centres unmarked) [GSK1287544]
Reply | 94.7

----------
tested on: DCAMKL2; construct: gene DCLK2; conditions: concentration: 1 μM, replicates: in singlicate; n = 1
experimental-readout: %Inh (%)
API: value field is a number in %; no unit string.

Field: example entries. Status: answers known.
{"columns": ["query-smiles", "result-unit", "val"],
 "data": [
  ["CCCCc1nn2ncccc2c1-c1ccnc(Nc2ccc(N3CCN(C)CC3)cc2)n1", "%", 25],
  ["CCn1c(-c2nonc2N)nc2c(C#CC(C)(C)O)nc(OC[C@H](N)c3ccccc3)cc21", "%", 0],
  ["Cl.c1ccc(-c2ccc3c(Nc4ccc5[nH]ccc5c4)ccnc3c2)nc1", "%", 0]
]}

Next item in the queue.
Ask | Answer with reported %Inh of `C[C@@H](Oc1cc(-n2cnc3cc(-c4ccnc(NCCS(C)(=O)=O)c4)ccc32)sc1C(N)=O)c1ccccc1Cl`
Reply | 1

----------
system: PIK3CG; settings: concentration: 1 μM, replicates: in singlicate; n = 1
experimental-readout: %Inh (%)
Numeric answer only, unit % assumed.

The cases that follow already have their %Inh on record.
{"columns": ["molecule", "result-unit", "val"],
 "data": [
  ["Cc1ccc(C)c(NC(=O)NC2CCN(c3ccnc(Nc4ccc(F)cc4)n3)C2)c1 (centres unmarked)", "%", 0],
  ["COc1cc(Nc2nccc(-c3c(-c4cccc(NC(=O)c5c(F)cccc5F)c4)nn4ccccc34)n2)cc(OC)c1OC", "%", 9],
  ["O=c1[nH]cc(-c2ccc(N3CCOCC3)cc2)c2sc(-c3cn[nH]c3)cc12", "%", 21],
  ["COc1cc(Nc2nccc(N3CCC(NC(=O)Nc4cccc(C(C)=O)c4)C3)n2)cc(OC)c1OC (centres unmarked)", "%", 20],
  ["CN(C)Cc1ccc(-c2ccc3c(Nc4ccc(Oc5ccccn5)cc4)ccnc3c2)o1", "%", 0],
  ["Cc1cccc(Nc2nc(N[C@H]3CCNC3)ncc2C(N)=O)c1.Cl", "%", 0],
  ["COc1cccc(-c2ccc3c(NC(=O)C4CC4)n[nH]c3n2)c1", "%", 0]
]}

Now look at this entry.
Ask | Please look at `CN1CCN(CCCNc2nccc(-c3c(-c4ccc(F)cc4)nn4cc(C(F)(F)F)ccc34)n2)CC1` and tell me its recorded %Inh on PIK3CG.
Reply | 0
